Ref: paper PMC9848156

# tested.target: 3CL^pro (Severe acute respiratory syndrome coronavirus 2)
pIC50: −log10 of the molar value.
Rule: satisfied for pIC50 not less than 5, not satisfied for anything less.

Worked examples, 2 compounds total:
O=C([O-])c1cc(O)ccn1.[C-]#[O+].[C-]#[O+].[C-]#[O+].[Re+] [Compound 18]; satisfied
CS(C)=O.O=C([O-])c1ccccn1.[C-]#[O+].[C-]#[O+].[C-]#[O+].[Re+] [1DMSO, [Re(pic)(CO)3(DMSO)]]; not satisfied

Form field: pIC50 at least 5? Entry: O=C([O-])c1ncccc1F.[C-]#[O+].[C-]#[O+].[C-]#[O+].[Re+] [Compound 2] not satisfied

====

# tested.target: cathepsin B (Homo sapiens, UniProt P07858)
property.label: IC50

O.O=C([O-])c1ccccn1.[C-]#[O+].[C-]#[O+].[C-]#[O+].[Re+] [Compound 1, [Re(pic)(CO)3(H2O)]]; > 100 µM

// returns reported IC50 for input O=C([O-])c1cc(O)ccn1.[C-]#[O+].[C-]#[O+].[C-]#[O+].[Re+] > 100 µM

====

Reported IC50 by item:
# tested.target: UniProt P09958
# Sequence (P09958 108-794): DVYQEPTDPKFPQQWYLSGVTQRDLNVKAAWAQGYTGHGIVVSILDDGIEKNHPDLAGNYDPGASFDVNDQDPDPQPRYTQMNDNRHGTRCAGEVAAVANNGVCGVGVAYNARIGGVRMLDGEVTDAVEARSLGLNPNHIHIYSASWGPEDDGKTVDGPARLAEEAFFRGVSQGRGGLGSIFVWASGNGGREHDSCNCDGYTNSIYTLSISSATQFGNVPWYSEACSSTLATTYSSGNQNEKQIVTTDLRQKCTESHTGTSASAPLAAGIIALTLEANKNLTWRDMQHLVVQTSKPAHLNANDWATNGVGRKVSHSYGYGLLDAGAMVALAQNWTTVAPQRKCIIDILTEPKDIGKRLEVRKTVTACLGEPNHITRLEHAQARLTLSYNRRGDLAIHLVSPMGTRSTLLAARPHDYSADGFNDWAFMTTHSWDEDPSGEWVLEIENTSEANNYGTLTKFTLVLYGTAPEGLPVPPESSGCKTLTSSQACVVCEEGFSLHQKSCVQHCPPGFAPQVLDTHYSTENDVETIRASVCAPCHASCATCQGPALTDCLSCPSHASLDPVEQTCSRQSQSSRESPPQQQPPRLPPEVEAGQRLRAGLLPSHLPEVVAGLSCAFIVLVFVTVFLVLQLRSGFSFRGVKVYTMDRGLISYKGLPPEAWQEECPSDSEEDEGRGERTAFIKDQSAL

O.O=C([O-])c1ccccn1.[C-]#[O+].[C-]#[O+].[C-]#[O+].[Re+] [Compound 1, [Re(pic)(CO)3(H2O)]]; > 100 µM

Endpoint output: IC50 of O=C([O-])c1cc(O)ccn1.[C-]#[O+].[C-]#[O+].[C-]#[O+].[Re+] [Compound 18] . Value? > 100 µM

====

# pIC50 per entry for cathepsin L (Homo sapiens, UniProt P07711)
Friendly reminder that pIC50 comes from taking -log10 of the concentration in mol/L.

O.O=C([O-])c1ccccn1.[C-]#[O+].[C-]#[O+].[C-]#[O+].[Re+] [Compound 1, [Re(pic)(CO)3(H2O)]]; 4.28

Let us examine a further case.
Returns the measured pIC50 for the input compound. Input: O=C([O-])c1cc(O)ccn1.[C-]#[O+].[C-]#[O+].[C-]#[O+].[Re+] [Compound 18] 4.17

====

A short record of IC50 observed with dipeptidyl peptidase-4 (DPP4) (Homo sapiens) follows.
Sequence (P27487 whole entry): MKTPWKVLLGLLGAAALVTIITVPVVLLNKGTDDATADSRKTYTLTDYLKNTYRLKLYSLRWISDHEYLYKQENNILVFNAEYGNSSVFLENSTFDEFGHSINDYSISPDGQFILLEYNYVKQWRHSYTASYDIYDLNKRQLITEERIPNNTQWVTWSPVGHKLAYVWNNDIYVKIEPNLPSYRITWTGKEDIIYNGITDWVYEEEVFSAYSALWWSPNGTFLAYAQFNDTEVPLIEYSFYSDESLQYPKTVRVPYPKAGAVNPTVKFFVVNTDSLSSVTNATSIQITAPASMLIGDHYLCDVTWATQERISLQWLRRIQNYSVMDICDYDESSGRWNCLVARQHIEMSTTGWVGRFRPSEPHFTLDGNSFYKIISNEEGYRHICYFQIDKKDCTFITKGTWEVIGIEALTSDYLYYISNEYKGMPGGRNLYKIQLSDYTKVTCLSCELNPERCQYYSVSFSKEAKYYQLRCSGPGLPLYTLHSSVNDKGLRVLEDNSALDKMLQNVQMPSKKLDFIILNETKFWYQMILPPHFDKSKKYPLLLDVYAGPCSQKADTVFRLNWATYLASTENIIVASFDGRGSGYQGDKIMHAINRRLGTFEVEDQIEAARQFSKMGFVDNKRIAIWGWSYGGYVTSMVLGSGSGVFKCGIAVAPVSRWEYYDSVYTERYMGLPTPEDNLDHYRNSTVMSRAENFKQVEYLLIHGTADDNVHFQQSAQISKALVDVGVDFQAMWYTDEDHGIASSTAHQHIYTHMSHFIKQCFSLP

O=C([O-])c1cc(O)ccn1.[C-]#[O+].[C-]#[O+].[C-]#[O+].[Re+]; > 100 µM

# ---- query molecule ----
Lab note: need IC50 with dipeptidyl peptidase-4 (DPP4) (Homo sapiens) for entry O.O=C([O-])c1ccccn1.[C-]#[O+].[C-]#[O+].[C-]#[O+].[Re+] [Compound 1, [Re(pic)(CO)3(H2O)]] , please look it up. > 100 µM

====

# System: Huh 7.5.1 cells
# measurement.context: read-out: CC50 Huh 7.5.1
property.label: CC50 (µM)
The reply should contain only the number, in µM.

Quick check: CC50 of CS(C)=O.O=C([O-])c1ccccn1.[C-]#[O+].[C-]#[O+].[C-]#[O+].[Re+] [1DMSO, [Re(pic)(CO)3(DMSO)]] ? 16.5

====

Endpoint: IC50. System: 3CL^pro (Severe acute respiratory syndrome coronavirus 2, UniProt P0DTD1). Items follow.
Answer in µM, number only, no unit symbol.

Some solved entries appear below for comparison.
O=C([O-])c1cccc(O)n1.[C-]#[O+].[C-]#[O+].[C-]#[O+].[Re+]; 8.8
COc1cccc(C(=O)[O-])n1.[C-]#[O+].[C-]#[O+].[C-]#[O+].[Re+]; 8.5
Nc1cccc(C(=O)[O-])n1.[C-]#[O+].[C-]#[O+].[C-]#[O+].[Re+]; 10.9
O.O=C([O-])c1ccccn1.[C-]#[O+].[C-]#[O+].[C-]#[O+].[Re+] [Compound 1, [Re(pic)(CO)3(H2O)]]; 9.1

The record that follows has no IC50 shown yet.
May I ask what IC50 has been recorded for Nc1ccnc(C(=O)[O-])c1.[C-]#[O+].[C-]#[O+].[C-]#[O+].[Re+] ? 8.4
